targetOrTestSystem: UGT1A9 (Homo sapiens, UniProt O60656)
procedureText: in vitro
conditionDetails: pH 7.4, Km
Entries and their Km values follow.
observedProperty: Km (µM)

compound: CCC(C)c1ccc(O)cc1 (centres unmarked)
observedProperty: Km
observedValue: 87.5
//
compound: Cc1cc(O)c2c(c1)C(=O)c1cc(O)cc(O)c1C2=O
observedProperty: Km
observedValue: 2.87
//
compound: CCCCc1ccc(O)cc1
observedProperty: Km
observedValue: 43.1
//
compound: O=c1cc(-c2ccccc2)oc2cc(O)c(O)c(O)c12
observedProperty: Km
observedValue: 0.7
//
compound: O=c1c(O)c(-c2ccccc2)oc2cc(O)cc(O)c12
observedProperty: Km
observedValue: 0.68

====

targetOrTestSystem: UGT1A9 (Homo sapiens)
conditionDetails: human, recombinant enzyme
Response field label takes Yes when Log (CLint) (Actual) is strictly below 4 and No in all other cases.

compound: COc1cc(/C=C/C(=O)O)ccc1O
labelClass: Yes

compound: O=c1cc(-c2cccc(O)c2)oc2cc(O)c(O)cc12 [compound 36, 6,7,3′-Trihydroxflavone]
labelClass: Yes

compound: O=c1c(O)c(-c2ccccc2)oc2ccc(O)cc12 [compound 65, 3,6-Dihydroxyfavone]
labelClass: No

compound: Cc1cc(O)cc2oc(-c3ccccc3)cc(=O)c12
labelClass: Yes

compound: CCc1c2c(nc3ccc(O)cc13)-c1cc3c(c(=O)n1C2)COC(=O)[C@]3(O)CC
labelClass: Yes

compound: Oc1ccc(N=Nc2ccccc2)cc1
labelClass: Yes

compound: O=c1c(O)c(-c2ccc(O)cc2)oc2ccccc12 [compound 64, 3,4′-Dihydroxyfavone]
labelClass: No

compound: O=C1c2ccc(O)cc2OCC1c1ccc(O)cc1 (stereo not drawn) [compound 102, Dihydrodaidzein]
labelClass: Yes

compound: COc1ccc(-c2coc3cc(O)cc(O)c3c2=O)cc1
labelClass: Yes

====

targetOrTestSystem: UniProt O60656
procedureText: Kinetic profiling of glucuronidation by expressed human UGT1A9
conditionDetails: log of experimental CLint (μl/mg/min)
Please mark 1.0 if the recorded Log (CLint) (Actual) is equal to or greater than 4, and 0.0 if it falls below.

compound: COc1ccc2oc(-c3ccccc3)c(O)c(=O)c2c1 [compound 78, 3-Hydroxy-6-methoxyflavone]
labelClass: 1.0

compound: O=c1c(O)c(-c2cccc(O)c2)oc2ccccc12 [compound 60, 3,3′-Dihydroxyflavone]
labelClass: 1.0

compound: O=c1c(O)c(-c2ccc(O)c(O)c2)oc2ccccc12 [compound 63, 3,3′,4′-Trihydroxyflavone]
labelClass: 1.0

compound: O=c1c(O)c(-c2ccc(O)cc2)oc2ccc(O)cc12 [compound 62, 3,6,4′-Trihydroxyflavone]
labelClass: 1.0

compound: COc1ccc(O)cc1 [compound 118, 4-Methoxyphenol]
labelClass: 0.0

compound: COc1c(O)cc2oc(-c3ccc(O)c(O)c3)cc(=O)c2c1O [compound 39, 6-Methoxyluteolin]
labelClass: 0.0

compound: CCCc1ccc(O)cc1 [compound 126, 4-n-Propylphenol]
labelClass: 0.0

compound: O=c1c(O)c(-c2ccc(O)cc2)oc2cc(O)cc(O)c12 [88.a, Kaempferol]
labelClass: 0.0

compound: Oc1ccc([C@H]2COc3cc(O)ccc3C2)cc1 [compound 103, Equol]
labelClass: 0.0

compound: Oc1ccc(F)cc1 [compound 115, 4-Fluorophenol]
labelClass: 0.0

compound: Oc1ccc(-c2ccccc2)cc1 [compound 123, 4-Phenylphenol]
labelClass: 0.0

compound: COc1ccccc1-c1cc(=O)c2ccc(O)cc2o1 [compound 44, 7-Hydroxy-2′-methoxyflavone]
labelClass: 0.0

compound: CC/C(=C(\c1ccc(O)cc1)c1ccc(OCCNC)cc1)c1ccccc1 [compound 19, Endoxifen]
labelClass: 0.0

compound: O=[N+]([O-])c1ccc(O)cc1 [compound 120, 4-Nitrophenol]
labelClass: 0.0

compound: COc1ccc(-c2coc3cc(O)ccc3c2=O)cc1 [compound 104, Formononetin]
labelClass: 0.0

====

targetOrTestSystem: UGT1A9 (Homo sapiens, UniProt O60656)
procedureText: Kinetic profiling of glucuronidation by expressed human UGT1A9
conditionDetails: log of experimental CLint (μl/mg/min)
Mark 1 for reported Log (CLint) (Actual) of 4 or greater; mark 0 for anything smaller.

compound: COc1cc(OC)c2c(=O)c(O)c(-c3ccccc3)oc2c1 [compound 75, 3-Hydroxy-5,7-dimethoxyflavone]
targetOrTestSystem: UGT1A9 (Homo sapiens, UniProt O60656)
labelClass: 1
--
compound: COc1cc(-c2cc(=O)c3c(O)cc(O)cc3o2)cc(OC)c1OC [compound 33, 5,7-Dihydroxy-3′,4′,5′-trimethoxyflavone]
targetOrTestSystem: UGT1A9 (Homo sapiens, UniProt O60656)
labelClass: 0
--
compound: O=c1cc(-c2ccccc2O)oc2cc(O)cc(O)c12 [compound 40, 5,7,2′-Trihydroxyflavone]
targetOrTestSystem: UGT1A9 (Homo sapiens, UniProt O60656)
labelClass: 0
--
compound: O=C(/C=C/c1ccc(O)cc1)c1ccccc1 [compound 4, 4-Hydroxychalcone]
targetOrTestSystem: UGT1A9 (Homo sapiens, UniProt O60656)
labelClass: 0
--
compound: O=C(/C=C/c1ccccc1)c1ccc(O)cc1 [compound 6, 4′-Hydroxychalcone]
targetOrTestSystem: UGT1A9 (Homo sapiens, UniProt O60656)
labelClass: 0
--
compound: COc1ccc(-c2oc3cc(OC)ccc3c(=O)c2O)cc1 [compound 79, 3-Hydroxy-7,4′-dimethoxyflavone]
targetOrTestSystem: UGT1A9 (Homo sapiens, UniProt O60656)
labelClass: 1
--
compound: Cc1cc(=O)oc2cc(O)ccc12
targetOrTestSystem: UGT1A9 (Homo sapiens, UniProt O60656)
labelClass: 0
--
compound: O=C(/C=C/c1ccc(O)cc1)CC(=O)/C=C/c1ccc(O)cc1
targetOrTestSystem: UGT1A9 (Homo sapiens, UniProt O60656)
labelClass: 0
--
compound: COc1cc(/C=C/c2ccc(O)cc2)cc(OC)c1
targetOrTestSystem: UGT1A9 (Homo sapiens, UniProt O60656)
labelClass: 0
--
compound: COc1cccc(-c2oc3ccccc3c(=O)c2O)c1 [compound 73, 3-Hydroxy-3′-methoxyflavone]
targetOrTestSystem: UGT1A9 (Homo sapiens, UniProt O60656)
labelClass: 1
--
compound: Cc1ccc2oc(-c3ccc4c(c3)OCO4)c(O)c(=O)c2c1
targetOrTestSystem: UGT1A9 (Homo sapiens, UniProt O60656)
labelClass: 1
--
compound: O=c1c(O)c(-c2ccccc2)oc2cc(O)ccc12 [68.a, 3,7-Dihydroxyflavone]
targetOrTestSystem: UGT1A9 (Homo sapiens, UniProt O60656)
labelClass: 1
--
compound: O=C1[C@H](CC[C@H](O)c2ccc(F)cc2)[C@@H](c2ccc(O)cc2)N1c1ccc(F)cc1 [compound 141, Ezetimibe, reference compound]
targetOrTestSystem: UGT1A9 (Homo sapiens, UniProt O60656)
labelClass: 0
--
compound: COc1ccc2c(=O)c(O)c(-c3ccccc3)oc2c1 [compound 80, 3-Hydroxy-7-methoxyflavone]
targetOrTestSystem: UGT1A9 (Homo sapiens, UniProt O60656)
labelClass: 1
--
compound: COc1ccc(-c2oc3cc(O)cc(O)c3c(=O)c2OC)cc1OCc1ccccc1
targetOrTestSystem: UGT1A9 (Homo sapiens, UniProt O60656)
labelClass: 0
--
compound: COc1ccc(-c2oc3cc(O)cc(O)c3c(=O)c2OC)cc1O [compound 29, 3,4′-Dimethoxy-5,7,3′-trihydroxyflavone]
targetOrTestSystem: UGT1A9 (Homo sapiens, UniProt O60656)
labelClass: 0

====

Quick list: CLint (Vmax/Km) per entry.
targetOrTestSystem: UGT1A9 (Homo sapiens)
Sequence (O60656 26-530): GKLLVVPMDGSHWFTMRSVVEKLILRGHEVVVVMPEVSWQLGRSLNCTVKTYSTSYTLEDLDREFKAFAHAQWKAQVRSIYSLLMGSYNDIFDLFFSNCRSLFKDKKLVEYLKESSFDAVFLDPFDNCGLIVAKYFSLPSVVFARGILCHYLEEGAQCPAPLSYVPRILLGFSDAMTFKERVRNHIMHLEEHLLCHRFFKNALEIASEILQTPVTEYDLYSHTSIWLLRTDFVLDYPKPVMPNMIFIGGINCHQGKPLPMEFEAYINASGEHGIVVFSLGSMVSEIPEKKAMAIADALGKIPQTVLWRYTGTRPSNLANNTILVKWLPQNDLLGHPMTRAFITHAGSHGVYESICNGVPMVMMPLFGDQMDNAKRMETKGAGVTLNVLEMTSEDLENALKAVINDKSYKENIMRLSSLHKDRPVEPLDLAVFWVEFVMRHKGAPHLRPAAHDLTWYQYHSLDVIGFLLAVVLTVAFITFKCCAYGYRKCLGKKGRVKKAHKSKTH
conditionDetails: human, pH 7.4
observedProperty: CLint (Vmax/Km) (µL/min/mg)

compound: CCC(C)c1ccc(O)cc1 (centres unmarked) [compound 127, 4-sec-Butylphenol]
measureUnit: µL/min/mg
observedValue: 37
--
compound: O=c1c(-c2ccc(O)cc2)coc2cc(O)ccc12 [compound 101, Daidzein]
measureUnit: µL/min/mg
observedValue: 77
--
compound: O=c1c(-c2ccc(O)cc2)coc2cc(O)cc(O)c12 [compound 105, Genistein]
measureUnit: µL/min/mg
observedValue: 617
--
compound: Oc1cccc2ccccc12 [compound 21, Naphthol]
measureUnit: µL/min/mg
observedValue: 288
--
compound: Cc1cc(O)c2c(c1)C(=O)c1cc(O)cc(O)c1C2=O [compound 18, Emodin]
measureUnit: µL/min/mg
observedValue: 1020
